Assay: Isothermal sorption / dynamic vapor sorption (hygroscopicity)
Assay type: physicochemical
Settings: between 0% RH and 80% RH
Can you tell me moisture sorption (weight change) for the items I'm about to list?
Respond numerically; units are % and should not be typed.

[Q] # query: moisture sorption (weight change) of entry CC(O)c1cc(C(=O)N[C@@H](C)Cn2ccc(-c3ccc(C#N)c(Cl)c3)n2)n[nH]1 (some centres unmarked) [ODM-201 Form 2]
[A] 2.5

[Q] # query: moisture sorption (weight change) of entry CC(O)c1cc(C(=O)N[C@@H](C)Cn2ccc(-c3ccc(C#N)c(Cl)c3)n2)n[nH]1 (some centres unmarked) [amorphous ODM-201, reference compound]
[A] 6.4
